- Test system: COLO 205 colon
- Measurement notes: NCI-60 one-dose screen, 48 h
- Condition details: 10 µM unless noted
Compounds without any hit were thinned out: in the full panel of roughly 83,000, 20% have a hit. Activity calls are given as the source filed them. The calls were made as follows: active = growth percent below 10; inactive = the rest.
Outcomes you can answer with include only these: active, inactive

Completed entries (count: 2):
{"Compound": "Cn1ccc(Cc2cnc(N)s2)n1", "Assigned class": "inactive"}
{"Compound": "CC(=O)c1ccc2c(c1)CCN2", "Assigned class": "inactive"}

q: Tell me the assay call for COc1ccc(C2CC(c3ccc4ccccc4c3)=NN2c2nc(O)c(C3=c4cc(Cl)ccc4=NC3=O)s2)cc1 (stereo unspecified) please.
a: active

q: Tell me the assay call for COc1cc(C2CC(c3ccc(Nc4nc(Nc5ccc(F)cc5)nc(Nc5ccc(Cl)cc5)n4)cc3)=NN2C(C)=O)cc(OC)c1OC (stereo unspecified) please.
a: inactive

q: Tell me the assay call for Cn1cc(-c2ccc3ncc(-c4ccc(CC(=O)Nc5cc(C(C)(C)C)nn5C)cc4)cc3c2)cn1 please.
a: active

q: Tell me the assay call for C/C(=N\NC(N)=S)c1nc2ccc(Cl)cc2[nH]1 please.
a: inactive

====

- Tested on: SNB-75 CNS
- Measurement notes: NCI-60 one-dose screen, 48 h (100 = growth as untreated, 0 = no growth, -100 = all killed)
- Condition details: 10 µM unless noted
About 83,000 compounds went through this panel and 20% of them were active in at least one assay; those are over-represented in the sample as a whole.
With a cut-off of 60%, any growth strictly below it is called criterion met; any growth meeting it or above is called criterion not met.

Completed entries (count: 3):
{"Molecule": "COc1ccc(/C(C)=C(\\c2ccc(Cl)cc2)c2ccc(OCCN3CCCC3)cc2)cc1F", "System name": "SNB-75 CNS", "Assigned class": "criterion met"}
{"Molecule": "COc1ccc(/C(C)=C(\\c2ccc(Cl)cc2)c2ccc(OCCN3CCCCC3)cc2)cc1F", "System name": "SNB-75 CNS", "Assigned class": "criterion not met"}
{"Molecule": "CC(C)(C)Nc1c(-c2c3ccccc3cc3ccccc23)nc2ccccn12", "System name": "SNB-75 CNS", "Assigned class": "criterion not met"}

q: Lab note: confirm whether the reported growth for this molecule is below 60%, equality not counting. molecule: CC(C)n1nc(C#Cc2cccc3cc(-c4cccc(C(F)(F)F)c4)ncc23)c2c(N)ncnc21
a: criterion met

====

- Tested on: DU-145 prostate
- Measurement notes: NCI-60 one-dose screen, 48 h (100 = growth as untreated, 0 = no growth, -100 = all killed)
- Condition details: 10 µM unless noted
This is part of a sample that, as a whole, favours compounds with a hit. Of some 83,000 tested, about 20% had one in any assay.
growth listing for selected compounds.
Entry rule: numbers only, all in %.

{"Compound": "CCn1c(Sc2nnc(NC(=O)CSC(=S)N3CCCCC3)s2)nc2c1c(=O)n(C)c(=O)n2C", "growth / %": 98}

GET /value?item= O=C(O)c1ccc(CO)o1 &field=growth returns 113

GET /value?item= Cc1c(C)c2c(c(C)c1NC(=O)/C=C\C(=O)O)CCC(C)(CCCC(C)CCCC(C)CCCC(C)C)O2 (stereo not drawn) &field=growth returns 80.2

GET /value?item= COc1ccc(/C=C2\COc3ccc(O)c(O)c3C2=O)c(OC)c1 &field=growth returns 67.2

====

- System: SNB-75 CNS
- Measurement notes: NCI-60 one-dose screen, 48 h
- Condition details: 10 µM unless noted
Compounds without any hit were thinned out: in the full panel of roughly 83,000, 20% have a hit. Active and inactive are the calls of the source. How the source made its calls: active means growth percent below 10; inactive means the rest.
Outcomes you can answer with include only these: YES for active, NO for inactive

{"Smiles record": "NC(N)=N/N=C(/c1ccccc1)c1ccccc1F", "Assigned class": "YES"}
{"Smiles record": "COc1c(C)cnc(CSc2nc(-c3ccc(C)cc3)cn2-c2ccc(Cl)cc2)c1C", "Assigned class": "NO"}

q: Tell me the assay call for COc1ccc(OC)c(/C=C2\COc3ccc(O)c(O)c3C2=O)c1 please.
a: NO

q: Tell me the assay call for CN1CCN(C(=O)[C@@]2(C)CC[C@]3(C)CC[C@]4(C)C(=CC[C@@H]5[C@@]6(C)C/C(=C/c7ccncc7)C(=O)C(C)(C)[C@@H]6CC[C@]54C)[C@@H]3C2)CC1 please.
a: NO

q: Tell me the assay call for CN1CCN(c2ccc3nc(/N=C/c4ccc5sc(-c6ccc([N+](=O)[O-])cc6)nc5c4)sc3c2)CC1 please.
a: NO

q: Tell me the assay call for COC(=O)CNC(=O)C(=O)c1c(O)c(O)c(C(C)C)c2cc(C)c(-c3c(C)cc4c(C(C)C)c(O)c(O)c(C(=O)C(=O)NCC(=O)OC)c4c3O)c(O)c12 please.
a: NO

q: Tell me the assay call for Cc1csc(NC(=O)c2sc3nc(-c4cccs4)ccc3c2N)n1 please.
a: NO

q: Tell me the assay call for COc1ccc(/C(C)=C(\c2ccc(Cl)cc2)c2ccc(OCCN3CCCCCC3)cc2)cc1F please.
a: NO

q: Tell me the assay call for COc1ccc(C(=O)/C=C/c2cc3c(c(OC)c2)OCC(=O)N3)cc1 please.
a: NO

q: Tell me the assay call for CC(=O)Nc1nccs1 please.
a: NO

====

- Tested on: M14 melanoma
- Measurement notes: NCI-60 one-dose screen, 48 h (100 = growth as untreated, 0 = no growth, -100 = all killed)
- Condition details: 10 µM unless noted
Compounds without any hit were thinned out: in the full panel of roughly 83,000, 20% have a hit.
With a cut-off of 70%, any growth strictly below it is called 1; any growth meeting it or above is called 0.

Completed entries (count: 3):
{"Compound": "Nc1nc(N)c(-c2ccc(Cl)cc2)c(/C=C/c2ccc([N+](=O)[O-])cc2)n1", "Assigned class": 1}
{"Compound": "O=c1cc(-c2ccc(OCc3ccccc3)cc2)oc2c(I)c(OCc3ccccc3)cc(OCc3ccccc3)c12", "Assigned class": 0}
{"Compound": "CC(C)c1ccc(C(=O)OC(=O)c2ccc(C(C)C)cc2)cc1", "Assigned class": 0}

Now let's try a different one.
q: Lab note: confirm whether the reported growth for this compound is below 70%, equality not counting. compound: CCN(CC)CCCC(C)NCc1ccccc1 (stereo not drawn)
a: 0

====

- Tested on: HCC-2998 colon
- Measurement notes: NCI-60 one-dose screen, 48 h (100 = growth as untreated, 0 = no growth, -100 = all killed)
- Condition details: 10 µM unless noted
This is part of a sample that, as a whole, favours compounds with a hit. Of some 83,000 tested, about 20% had one in any assay. The source made the active and inactive calls. Rule for the calls: active = growth percent below 10; inactive = the rest.
growth listing for selected compounds.

Solved entries:
{"Compound": "COc1ccc(-n2ncn(CCCCCCn3cnn(-c4ccc(OC)cc4)c3=O)c2=O)cc1", "growth": "110% (inactive)"}
{"Compound": "CN(C)CN1CCN(c2ccc3nc(-c4ccc5nc(-c6ccc(C(F)(F)F)cc6)[nH]c5c4)[nH]c3c2)CC1", "growth": "84.7% (inactive)"}

GET /value?item= NC(N)=N/N=C/c1ccc(Br)cc1 &field=growth returns 56.7% (inactive)

====

- Test system: UACC-257 melanoma
- Measurement notes: NCI-60 one-dose screen, 48 h
- Condition details: 10 µM unless noted
About 83,000 compounds went through this panel and 20% of them were active in at least one assay; those are over-represented in the sample as a whole. Active and inactive are the calls of the source. Rule for the calls: active = growth percent below 10; inactive = the rest.
Outcomes you can answer with include only these: True = active, False = inactive

q: Tell me the assay call for O=C(Oc1ccc([N+](=O)[O-])cc1)c1ccc(CBr)cc1 please.
a: False

q: Tell me the assay call for COc1cc2ccccc2cc1C(=O)NC(=S)Nc1ccc(-c2nc3ccccc3[nH]2)cc1 please.
a: False

q: Tell me the assay call for CCn1c(Sc2nnc(Nc3ccccc3)s2)nc2c1c(=O)n(C)c(=O)n2C please.
a: False

q: Tell me the assay call for O=C(/C=C/c1ccccc1)c1ccc2ccccc2c1 please.
a: False

q: Tell me the assay call for Cc1nc(-c2ccccc2)cc2c(O)c(C(=O)N/N=C/c3ccc(N(C)C)cc3)[nH]c(=O)c12 please.
a: False

q: Tell me the assay call for Nc1ccc(S(=O)(=O)Nc2ccsc2-c2nc(-c3ccccc3)no2)cc1 please.
a: False

q: Tell me the assay call for NC(=S)c1csc(CCNC(=O)c2ccccc2)n1 please.
a: False

q: Tell me the assay call for COC(=O)Nc1nc2ccc(C(=O)C3CC3)cc2[nH]1 please.
a: False

q: Tell me the assay call for Cc1cn(C2CCCCC2)c(=O)[nH]c1=O please.
a: False

q: Tell me the assay call for CCCCCCNCc1cc(C(C)(C)C)cc(CNCCCCCC)c1O please.
a: True

q: Tell me the assay call for Nc1c(C(=O)c2ccc(Cl)s2)sc2nc3c(cc12)CCCC3 please.
a: False
